The measurements presented in this section are drawn from ChEMBL document CHEMBL4699483.

test: Metabolic stability in human liver microsomes assessed as parent compound remaining incubated for 30 mins; assay type: ADME, Microsome; conditions: read-out: Stabilty
recorded_metric: remaining at 0.5 h (%)

CNc1nc(Nc2ccc(-n3cnc(C)n3)c(OC)c2)nc2c1CC[C@@H]2c1ccc(F)cc1 | 94
CNc1nc(Nc2ccc(-n3cnc(C)n3)c(OC)c2)nc2c1CC[C@H]2c1ccc(F)cc1 | 94
